Test system: Enterococcus faecium
assay_notes: NCCLS MIC/MBC microdilution, Enterococcus (vancomycin sensitive)
Type: cell-based
study_conditions: plate E523, Enterococcus facium patient isolate
measurement_name: MIC

Return MIC measured with Enterococcus faecium given this compound: c1ccc2c(c1)ccc1c3ccc(NCCCCN4CCCCC4)cc3ccc21
1.5/1.5 ug/ml

Give recorded MIC with Enterococcus faecium for the following compound: CN1CCN(CCCCNc2cc3c4ccccc4c(NCCCCN4CCN(C)CC4)cc3c3ccccc23)CC1.Cl
6 µg/mL

Lab note: need MIC with Enterococcus faecium for entry O=C(CCC(=O)N1CCCCC1)Nc1cc2c(c3ccccc13)-c1ccc3ccccc3c1C2 , please look it up.
+++

Find the measured MIC: item CN1CCN(C(=O)CCC(=O)Nc2cc3c(c4ccccc24)-c2ccc4ccccc4c2C3)CC1 , target or system Enterococcus faecium.
+++

====

System: MRSA (oxacillin/methicillin resistant S. aureus)
assay_notes: NCCLS MIC/MBC microdilution, MRSA
study_conditions: Table 3; 24 h and 48 h same results
measurement_name: MIC, MRSA (methicillin resistant)

Please review the entries below; each comes with its answer.
Look up MIC, MRSA (methicillin resistant) with MRSA (oxacillin/methicillin resistant S. aureus) for this compound: O=C1[C@@H](O)[C@H](c2ccccc2)N1c1cc2c3ccccc3ccc2c2ccccc12 (relative stereo)
No activity

Can you look up MIC, MRSA (methicillin resistant) on MRSA (oxacillin/methicillin resistant S. aureus) for c1ccc2c(c1)ccc1c3ccc(NCCCCN4CCCCC4)cc3ccc21 ?
1.5 to 3 µg/mL

Requested read-out MIC, MRSA (methicillin resistant), target or system MRSA (oxacillin/methicillin resistant S. aureus), entry c1ccc2c(c1)c(NCCCCN1CCCCC1)cc1c3ccccc3c(NCCCCN3CCCCC3)cc21
16 µg/mL

Lab note: need MIC, MRSA (methicillin resistant) with MRSA (oxacillin/methicillin resistant S. aureus) for entry O=C(CCC(=O)N1CCCCC1)Nc1cc2c(c3ccccc13)-c1ccc3ccccc3c1C2 , please look it up.
No activity

GET /values?readout=MIC, MRSA (methicillin resistant)&system=MRSA (oxacillin/methicillin resistant S. aureus)&item= CC(=O)c1cc2c3ccccc3ccc2c2ccc(NC(=O)CCC(=O)N3CCN(C)CC3)cc12
No activity

---
Give the reported MIC, MRSA (methicillin resistant) for CN1CCN(C(=O)CCC(=O)Nc2cc3c(c4ccccc24)-c2ccc4ccccc4c2C3)CC1 (system: MRSA (oxacillin/methicillin resistant S. aureus)).
1.8 to 7 µg/mL

For the record CN1CCN(CCCCNc2cc3c4ccccc4c(NCCCCN4CCN(C)CC4)cc3c3ccccc23)CC1.Cl , what value of MIC, MRSA (methicillin resistant) is listed for MRSA (oxacillin/methicillin resistant S. aureus)?
24 to 49 µg/mL

====

MIC values, listed per item
System: MRSA (oxacillin/methicillin resistant S. aureus)
assay_notes: NCCLS MIC/MBC microdilution, MRSA
study_conditions: plate G7, MRSA patient isolate
Give the quantity in µg/mL, number only.

Param item = CN1CCN(C(=O)CCC(=O)Nc2cc3c(c4ccccc24)-c2ccc4ccccc4c2C3)CC1 [Tx-37] ; retrieve measured MIC.
3.6

Would you kindly share the measured MIC for CN1CCN(CCCCNc2cc3c4ccccc4c(NCCCCN4CCN(C)CC4)cc3c3ccccc23)CC1.Cl [Tx-147] ?
24

Turning now to a further record.
May I ask what MIC has been recorded for c1ccc2c(c1)ccc1c3ccc(NCCCCN4CCCCC4)cc3ccc21 [Tx-5] ?
1.5

====

System: Stenotrophomonas maltophilia
assay_notes: NCCLS MIC/MBC microdilution, S. maltophilia
study_conditions: plate C3, S. maltophilia patient isolate
measurement_name: MIC

Give its MIC value. Item: CN1CCN(CCCCNc2cc3c4ccccc4c(NCCCCN4CCN(C)CC4)cc3c3ccccc23)CC1.Cl
96 µg/mL

Give the measured MIC of O=C(CCC(=O)N1CCCCC1)Nc1cc2c(c3ccccc13)-c1ccc3ccccc3c1C2 .
+++

Return reported MIC; argument: c1ccc2c(c1)ccc1c3ccc(NCCCCN4CCCCC4)cc3ccc21
48/48 ug/ml

Param item = CN1CCN(C(=O)CCC(=O)Nc2cc3c(c4ccccc24)-c2ccc4ccccc4c2C3)CC1 ; retrieve measured MIC.
+++

====

Items are presented alongside their recorded MIC, VRE enterococcus (E. faecalis).
Test system: VRE (Vancomycin resistant Enterococci)
assay_notes: NCCLS MIC/MBC microdilution, VRE
study_conditions: Table 3; 24 h and 48 h same results
Your answer is read as µg/mL, so omit the unit and give the number.

Please review the following examples before continuing.
API: value(readout= MIC, VRE enterococcus (E. faecalis), system= VRE (Vancomycin resistant Enterococci), query= CN1CCN(CCCCNc2cc3c4ccccc4c(NCCCCN4CCN(C)CC4)cc3c3ccccc23)CC1.Cl )
12

Tell me reported MIC, VRE enterococcus (E. faecalis) for CN1CCN(C(=O)CCC(=O)Nc2cc3c(c4ccccc24)-c2ccc4ccccc4c2C3)CC1 , tested with VRE (Vancomycin resistant Enterococci).
58

Identify the measured MIC, VRE enterococcus (E. faecalis) of c1ccc2c(c1)ccc1c3ccc(NCCCCN4CCCCC4)cc3ccc21 for VRE (Vancomycin resistant Enterococci).
3

More entries:
Item c1ccc2c3c(ccc2c1)-c1c(cc(NCCCCN2CCCCC2)c2ccccc12)C3 with VRE (Vancomycin resistant Enterococci) - MIC, VRE enterococcus (E. faecalis)?
210

====

System: VRE (Vancomycin resistant Enterococci)
assay_notes: NCCLS MIC/MBC microdilution, VRE
study_conditions: Table 3; 24 h and 48 h same results
measurement_name: MIC, VRE enterococcus (E. faecalis)

Returns the measured MIC, VRE enterococcus (E. faecalis) for the input compound. Input: CC(=O)c1cc2c3ccccc3ccc2c2ccc(NC(=O)CCC(=O)N3CCN(C)CC3)cc12
No activity

Suppose we examine the compound O=C(CCC(=O)N1CCCCC1)Nc1cc2c(c3ccccc13)-c1ccc3ccccc3c1C2 ; what MIC, VRE enterococcus (E. faecalis) value has been reported?
No activity

// query MIC, VRE enterococcus (E. faecalis) value for entry O=C1[C@@H](O)[C@H](c2ccccc2)N1c1cc2c3ccccc3ccc2c2ccccc12 (relative stereo)
No activity

Please report the recorded MIC, VRE enterococcus (E. faecalis) for c1ccc2c(c1)c(NCCCCN1CCCCC1)cc1c3ccccc3c(NCCCCN3CCCCC3)cc21 .
4 to 33 µg/mL
